# Tested on: Tyrosine-protein kinase ABL1 (Homo sapiens), P00519 [Y253F]
# details: at 0.1 µM
# cutoff 6% applies to inhibition; >= gives true (1), < gives false (0)

>>> class("NCc1ccc(-c2nc(-c3ccc(Cl)c(O)c3)c(-c3ccncc3)[nH]2)cc1")
"true (1)"
>>> class("Cc1ccc(C(=O)NC2CCCCC2)cc1-c1ccc(C(=O)NCC2CC2)cc1")
"false (0)"
>>> class("Cn1cc(C=C2C(=O)Nc3cccnc32)c2ccccc21")
"true (1)"
>>> class("CCn1c(-c2nonc2N)nc2cnc(Oc3cccc(NC(=O)c4ccc(OCCN5CCOCC5)cc4)c3)cc21")
"false (0)"
>>> class("CS(=O)(=O)CCN(CC#N)Cc1ccc(-c2ccc3ncnc(Nc4ccc(OCc5cccc(F)c5)c(Cl)c4)c3c2)o1")
"false (0)"

**Query** Does the reported inhibition for Nc1nc(-c2ccccn2)c(-c2ccc3ncccc3n2)s1 fall at or above the 6% mark?
**Result** false (0)
